# METHOD NOTES: Long-term/accelerated stability of crystal forms
# Type: physicochemical
# TEST PARAMETERS: 25 °C/60% RH, Initial, sealed in aluminum foil bag

- MOLECULE: "C[C@H]1COc2c(-c3nc(N[C@@H]4CCOC[C@H]4O)ncc3Cl)cc(F)c3nc(C(C)(C)O)n1c23 [Crystal form F]"
  Purity%: "99.9%"
- MOLECULE: "C[C@H]1COc2c(-c3nc(N[C@@H]4CCOC[C@H]4O)ncc3Cl)cc(F)c3nc(C(C)(C)O)n1c23 [Crystal form E]"
  Purity%: "99.9%"
- MOLECULE: "C[C@H]1COc2c(-c3nc(N[C@@H]4CCOC[C@H]4O)ncc3Cl)cc(F)c3nc(C(C)(C)O)n1c23 [Crystal form D]"
  Purity%: "99.9%"
- MOLECULE: "C[C@H]1COc2c(-c3nc(N[C@@H]4CCOC[C@H]4O)ncc3Cl)cc(F)c3nc(C(C)(C)O)n1c23 [Free-state amorphous form]"
  Purity%: "99.0%"
- MOLECULE: "C[C@H]1COc2c(-c3nc(N[C@@H]4CCOC[C@H]4O)ncc3Cl)cc(F)c3nc(C(C)(C)O)n1c23 [Crystal form G]"
  Purity%: "99.9%"
- MOLECULE: "C[C@H]1COc2c(-c3nc(N[C@@H]4CCOC[C@H]4O)ncc3Cl)cc(F)c3nc(C(C)(C)O)n1c23 [Crystal form H]"
  Purity%: "99.95%"
